Test system: T47D
PROTOCOL NOTES: NCI tumour cell line growth inhibition, 48 h
Calls of active or inactive are those of the source. Rule as the data show it: active = GI50 up to about 1.1 µM and inactive = higher.
Give your call using only these classes: True (active), False (inactive)

COMPOUND	CLASS LABEL
CC(=O)O[C@H]1C(=O)[C@@]2(C)[C@H]([C@H](OC(=O)c3ccccc3)[C@]3(O)C[C@H](OC(=O)[C@H](O)[C@@H](NC(=O)c4cccc(N=[N+]=[N-])c4)c4ccccc4)C(C)=C1C3(C)C)[C@]1(OC(C)=O)CO[C@@H]1C[C@@H]2O	True
C/C=C/[C@H]1O[C@@](OC)([C@@H](C)[C@H](O)[C@H](C)[C@H]2OC(=O)/C(OC)=C/C(C)=C/[C@@H](C)[C@@H](O)[C@@H](C)[C@@H](O)[C@H](C)C/C(C)=C/C=C/[C@@H]2OC)CC(OC2CC(O)C(OC(N)=O)C(C)O2)[C@@H]1C (some centres not stated)	True
COc1ccc2c3c([nH]c2c1)-c1nc2ccccc2c(=O)n1CC3	False
COC(=O)c1ccccc1C1CN=NC12Cc1ccc(C)cc1C2=O (configuration not stated)	False
CN1CCC2(CC1)SC[C@H]1C(=O)N(c3ccc(Cl)cc3)C(=O)N12	False

Prompt: Which result was noted for this compound in the test: CCN(CC)CC[n+]1ccc2c(C)c3[nH]c4ccccc4c3c(C)c2c1
Response: True

Prompt: Hey, what did the test say about CN1Cc2ccccc2S(=O)(=O)n2cccc2C1=O ?
Response: False

Prompt: Status in this test for CN1C2CCC1CC(CCNC(c1ccccc1)c1ccccc1)C2 (configuration not stated) ?
Response: False

Prompt: Could you please tell me the result logged for CC(C)=CCC/C(C)=C/C=C/C(C)=C/C=C/C(C)=C/C=C/C=C(C)/C=C/C=C(C)/C=C/[C@H]1C(C(C)(C)O)CC[C@]1(C)O (some centres not stated) in this assay?
Response: False

Prompt: Give the logged outcome of this assay for the following compound: CC(O)CN1c2ccccc2Sc2ccc(Cl)cc21 (configuration not stated)
Response: False

Prompt: Give the logged outcome of this assay for the following compound: O=S(=O)(/N=c1\[nH]c(-c2cc(O)c(O)c(O)c2)cs1)c1ccc(Cl)cc1Cl
Response: False

Prompt: Please let me know the test result on file for N#Cc1nc(C#N)n(S(=O)(=O)c2ccccc2)c1NS(=O)(=O)c1ccccc1 .
Response: False

* * *

Tested on: UACC-257
PROTOCOL NOTES: NCI tumour cell line growth inhibition, 48 h
Calls of active or inactive are those of the source. Rule as the data show it: active = GI50 up to about 1.1 µM and inactive = higher.
Hi there, use one of these labels in your reply, thanks! 1 (yes) for active, 0 (no) for inactive

// known answers, use as guide
>>> df
                                   compound  class_label
0  COc1ccc(-c2oc3ccccc3c(=O)c2O)cc1OC [3-HYDROXY-3',4'-DIMETHOXYFLAVONE]       0 (no)
1  CCOc1ccc(C(c2c(O)c3ccccc3oc2=O)c2c(O)c3ccccc3oc2=O)cc1       0 (no)
2   C/C(=N\NC(=S)Nc1ccc(C(=O)O)cc1)c1ccccn1       0 (no)
3               CCOC(=O)c1cc(Cl)ccc1OC(N)=O       0 (no)
4  COc1cc2cc(C(=O)N3C[C@@H](CCl)c4c3cc(N)c3ccccc43)[nH]c2c(OC)c1OC      1 (yes)
5  CC(=O)OC1COC(N2C(=O)/C(=N\Nc3ccc([N+](=O)[O-])cc3)c3cc(Br)c([N+](=O)[O-])cc32)C(OC(C)=O)C1OC(C)=O (stereo not given)       0 (no)
6      O=C(/C=C/c1ccc(O)c(O)c1O)OCCc1ccccc1       0 (no)
7         C/C(=N/NC(=S)Nc1ccccc1Cl)c1ccccn1      1 (yes)
8                          O=NNc1cnc(O)nc1O       0 (no)

Could you now look at the following compound, please?
Prompt: Please indicate how the test categorized Cc1ccc(S(=O)(=O)NN=C2C(C)(C)CC2(C)C)cc1 .
Response: 0 (no)
